Listing of recorded inhibition at 20 µM by entry.
Target: KRas G12C mutant (Homo sapiens, UniProt P01116, G12C)
Construct: made in house
Assay: Ras GTP binding domain inhibition assay (labeled-GTP competition, cell-free)
Conditions: without SOS, read-out: KRas G12C mutant: % inh.
Text: This is a competitive binding assay. It involves the immobilization of a protein on solid phase, interaction with a small molecule drug candidate, and then competitive binding with a labeled native GTP or GDP ligand. […] The small GTPases proteins: KRas wild type. KRas Q61H mutant, KRas G12C mutant, KRas G12D mutants, Rac-1, and Rho-A were expressed as His-tagged proteins. In addition, the Guanosine nucleotide Exchange Factor (GEF) Sos protein (residues 556-1049) was expressed as a His-tagged protein. […]
QUANTITY KIND: inhibition at 20 µM

{"MOLECULE": "CO[C@H]1CC[C@@H](Nc2nc(C(N)=O)nc3sc(-c4ccn(C(C)C)n4)cc23)C1 (racemic) [Compound 17]", "QUANTITY KIND": "inhibition at 20 µM", "RECORDED MEASUREMENT": "0%"}
{"MOLECULE": "CO[C@H]1C[C@@H](Nc2nc(-c3nccn3C)nc3sc(-c4ccn(C(C)C)n4)c(C)c23)C1 [Compound 96]", "QUANTITY KIND": "inhibition at 20 µM", "RECORDED MEASUREMENT": "0%"}
{"MOLECULE": "CO[C@H]1CC[C@@H](Nc2nc(-c3nccn3C)nc3sc(-c4cn(C)cn4)c(-c4ccccc4)c23)C1 (racemic) [Example 3]", "QUANTITY KIND": "inhibition at 20 µM", "RECORDED MEASUREMENT": "76 to 100%"}
{"MOLECULE": "CO[C@H]1CC[C@@H](Nc2nc(C(=O)Nc3ccccn3)nc3sccc23)C1 (racemic) [Compound 16]", "QUANTITY KIND": "inhibition at 20 µM", "RECORDED MEASUREMENT": "1 to 25%"}
{"MOLECULE": "COc1cccc(Nc2nc(-c3nccn3C)nc3sc(-c4ccn(C(C)C)n4)c(C)c23)c1 [Compound 64]", "QUANTITY KIND": "inhibition at 20 µM", "RECORDED MEASUREMENT": "26 to 50%"}
{"MOLECULE": "CO[C@H]1C[C@H](Nc2nc(-c3nccn3C)nc3sc(-c4ccn(C(C)C)n4)c(C)c23)C[C@H]1OC [Compound 43]", "QUANTITY KIND": "inhibition at 20 µM", "RECORDED MEASUREMENT": "1 to 25%"}
{"MOLECULE": "CO[C@@H]1CC[C@H]1CNc1nc(-c2nccn2C)nc2sc(-c3ccn(C(C)C)n3)c(C)c12 (racemic) [Compound 61]", "QUANTITY KIND": "inhibition at 20 µM", "RECORDED MEASUREMENT": "51 to 75%"}

----------
molecular target: Rho-A (Homo sapiens, UniProt P61586); test: MicroScale Thermophoresis (MST) GTP affinity; details: read-out: MST GTP affinity for binding domain

{"COMPOUND": "Nc1nc2c(ncn2[C@@H]2O[C@H](COP(=O)(O)OP(=O)(O)OP(=O)(O)O)[C@@H](O)[C@H]2O)c(=O)[nH]1 [GTP]", "UNITS LABEL": "nM", "Kd": 130}

----------
Listing of recorded inhibition at 20 µM by entry.
target: KRas Q61H mutant (Homo sapiens, UniProt P01116, Q61H); construct: made in house; test: Ras GTP binding domain inhibition assay (labeled-GTP competition, cell-free); details: at 20 μM, without SOS; read-out: KRas Q61H mutant: % inh.

{"MOLECULE": "COCCn1ccnc1-c1nc(O)c2scc(-c3ccncc3)c2n1", "inhibition at 20 µM": "51 to 75%"}
{"MOLECULE": "CO[C@H]1CC[C@@H](Nc2nc(C(N)=O)nc3sccc23)C1 (racemic)", "inhibition at 20 µM": "0%"}
{"MOLECULE": "NC(=O)c1nc(O)c2scc(-c3ccccn3)c2n1", "inhibition at 20 µM": "26 to 50%"}
{"MOLECULE": "Oc1nc(-c2nccn2CCOCC(F)(F)F)nc2c(-c3ccccn3)csc12", "inhibition at 20 µM": "51 to 75%"}
{"MOLECULE": "COc1cc(Nc2nc(-c3nccn3C)nc3sc(-c4ccn(C(C)C)n4)c(C)c23)ncn1", "inhibition at 20 µM": "51 to 75%"}
{"MOLECULE": "CO[C@@H]1CC[C@H](Nc2nc(-c3nccn3C)nc3sc(-c4ccn(C(C)C)n4)c(-c4ccccc4)c23)C1", "inhibition at 20 µM": "51 to 75%"}
{"MOLECULE": "COC1CCCN(c2nc(-c3ccccn3)nc3sc(-c4ccn(C(C)C)n4)c(C)c23)C1 (racemic)", "inhibition at 20 µM": "26 to 50%"}

----------
Target: KRas Q61H mutant (Homo sapiens, UniProt P01116, Q61H)
Construct: made in house
Experiment: Ras GTP binding domain inhibition assay (labeled-GTP competition, cell-free)
Conditions: at 20 μM, with SOS; read-out: KRas Q61H mutant + SOS: % inh.
From the text: This is a competitive binding assay. It involves the immobilization of a protein on solid phase, interaction with a small molecule drug candidate, and then competitive binding with a labeled native GTP or GDP ligand. […] The small GTPases proteins: KRas wild type. KRas Q61H mutant, KRas G12C mutant, KRas G12D mutants, Rac-1, and Rho-A were expressed as His-tagged proteins. In addition, the Guanosine nucleotide Exchange Factor (GEF) Sos protein (residues 556-1049) was expressed as a His-tagged protein. […]
QUANTITY KIND: inhibition at 20 µM

{"COMPOUND": "CO[C@H]1CC[C@@H](Nc2nc(C(N)=O)nc3sccc23)C1 (racemic)", "QUANTITY KIND": "inhibition at 20 µM", "RECORDED MEASUREMENT": "0%"}
{"COMPOUND": "Oc1nc(-c2ccncn2)nc2c(-c3ccccn3)csc12", "QUANTITY KIND": "inhibition at 20 µM", "RECORDED MEASUREMENT": "26 to 50%"}
{"COMPOUND": "Cc1c(-c2ccn(C(C)C)n2)sc2nc(-c3ccccn3)nc(N3CCC(COC(C)C)C3)c12 (stereo not shown)", "QUANTITY KIND": "inhibition at 20 µM", "RECORDED MEASUREMENT": "0%"}
{"COMPOUND": "Cc1c(-c2ccn(C(C)C)n2)sc2nc(-c3nccn3C)nc(NCc3n[nH]c(=O)n3C)c12", "QUANTITY KIND": "inhibition at 20 µM", "RECORDED MEASUREMENT": "51 to 75%"}
{"COMPOUND": "Cc1c(-c2ccn(C(C)C)n2)sc2nc(-c3nccn3C)nc(NCc3c[nH]cn3)c12", "QUANTITY KIND": "inhibition at 20 µM", "RECORDED MEASUREMENT": "76 to 100%"}
{"COMPOUND": "COc1nc(-c2nccn2C)nc2c(-c3ncccc3F)csc12", "QUANTITY KIND": "inhibition at 20 µM", "RECORDED MEASUREMENT": "76 to 100%"}
{"COMPOUND": "COCCNC(=O)c1nc(N[C@@H]2CC[C@H](OC)C2)c2ccsc2n1 (racemic)", "QUANTITY KIND": "inhibition at 20 µM", "RECORDED MEASUREMENT": "1 to 25%"}
{"COMPOUND": "COCCn1ccnc1-c1nc(N[C@H]2C[C@@H](OC)C2)c2c(-c3ccccc3)c(-c3ccn(C)n3)sc2n1", "QUANTITY KIND": "inhibition at 20 µM", "RECORDED MEASUREMENT": "76 to 100%"}
{"COMPOUND": "COc1cccc(Nc2nc(-c3nccn3C)nc3sc(-c4ccn(C(C)C)n4)c(C)c23)c1", "QUANTITY KIND": "inhibition at 20 µM", "RECORDED MEASUREMENT": "76 to 100%"}
{"COMPOUND": "COCCn1c(-c2nc(O)c3scc(-c4ccccn4)c3n2)nc2ccccc21", "QUANTITY KIND": "inhibition at 20 µM", "RECORDED MEASUREMENT": "26 to 50%"}
{"COMPOUND": "Cc1c(-c2ccn(C(C)C)n2)sc2nc(-c3nccn3C)nc(NCCc3nnn[nH]3)c12", "QUANTITY KIND": "inhibition at 20 µM", "RECORDED MEASUREMENT": "76 to 100%"}
{"COMPOUND": "COc1ccn2c(-c3nc(O)c4scc(-c5ccccn5)c4n3)ncc2c1", "QUANTITY KIND": "inhibition at 20 µM", "RECORDED MEASUREMENT": "26 to 50%"}
{"COMPOUND": "COC1CCCN(c2nc(-c3nccn3C)nc3sc(-c4ccn(C(C)C)n4)c(C)c23)C1 (racemic)", "QUANTITY KIND": "inhibition at 20 µM", "RECORDED MEASUREMENT": "76 to 100%"}
{"COMPOUND": "CO[C@@H]1CC[C@H](Nc2nc(-c3nccn3C)nc3sc(-c4ccn(C(C)C)n4)c(C)c23)C1", "QUANTITY KIND": "inhibition at 20 µM", "RECORDED MEASUREMENT": "76 to 100%"}
{"COMPOUND": "CO[C@H]1CC[C@@H](Nc2nc(-c3nccn3C)nc3sccc23)C1 (racemic)", "QUANTITY KIND": "inhibition at 20 µM", "RECORDED MEASUREMENT": "76 to 100%"}
{"COMPOUND": "NC(=O)c1nc(O)c2scc(-c3ccccn3)c2n1", "QUANTITY KIND": "inhibition at 20 µM", "RECORDED MEASUREMENT": "26 to 50%"}
{"COMPOUND": "COC[C@@H]1CC[C@@H]1CNc1nc(-c2nccn2C)nc2sc(-c3ccn(C(C)C)n3)c(C)c12 (racemic)", "QUANTITY KIND": "inhibition at 20 µM", "RECORDED MEASUREMENT": "26 to 50%"}
{"COMPOUND": "Cc1c(-c2ccn(C(C)C)n2)sc2nc(-c3nccn3C)nc(NCc3ncc[nH]3)c12", "QUANTITY KIND": "inhibition at 20 µM", "RECORDED MEASUREMENT": "26 to 50%"}
{"COMPOUND": "COCCn1ccnc1-c1nc(N[C@@H]2CC[C@H](OC)C2)c2c(-c3ccccc3)c(-c3ccn(C)n3)sc2n1 (racemic)", "QUANTITY KIND": "inhibition at 20 µM", "RECORDED MEASUREMENT": "76 to 100%"}
{"COMPOUND": "CO[C@H]1CC[C@@H](Nc2nc(-c3ccccn3)nc3sc(-c4ccn(C(C)C)n4)c(C)c23)C1 (racemic)", "QUANTITY KIND": "inhibition at 20 µM", "RECORDED MEASUREMENT": "76 to 100%"}
{"COMPOUND": "CO[C@H]1CC[C@H](Nc2nc(-c3nccn3C)nc3sc(-c4ccn(C(C)C)n4)c(C)c23)CC1", "QUANTITY KIND": "inhibition at 20 µM", "RECORDED MEASUREMENT": "76 to 100%"}
{"COMPOUND": "Cc1sc2c(O)nc(-c3ccccn3)nc2c1-c1ccccn1", "QUANTITY KIND": "inhibition at 20 µM", "RECORDED MEASUREMENT": "76 to 100%"}
{"COMPOUND": "COC1CCCN(c2nc(-c3ccccn3)nc3sc(-c4ccn(C(C)C)n4)c(C)c23)C1 (racemic)", "QUANTITY KIND": "inhibition at 20 µM", "RECORDED MEASUREMENT": "26 to 50%"}
{"COMPOUND": "Cn1ccc(-c2nc(O)c3scc(-c4ccccn4)c3n2)n1", "QUANTITY KIND": "inhibition at 20 µM", "RECORDED MEASUREMENT": "26 to 50%"}
{"COMPOUND": "O=C(Nc1ccccn1)c1nc(O)c2scc(-c3ccccn3)c2n1", "QUANTITY KIND": "inhibition at 20 µM", "RECORDED MEASUREMENT": "0%"}
{"COMPOUND": "Cc1c(-c2ccn(C(C)C)n2)sc2nc(-c3nccn3C)nc(NC[C@@H]3CCC(=O)N3)c12", "QUANTITY KIND": "inhibition at 20 µM", "RECORDED MEASUREMENT": "51 to 75%"}
{"COMPOUND": "CO[C@H]1C[C@H](CNc2nc(-c3nccn3C)nc3sc(-c4ccn(C(C)C)n4)c(C)c23)C1", "QUANTITY KIND": "inhibition at 20 µM", "RECORDED MEASUREMENT": "51 to 75%"}
{"COMPOUND": "Oc1nc(-c2nccn2CCOCc2ccccc2)nc2c(-c3ccccn3)csc12", "QUANTITY KIND": "inhibition at 20 µM", "RECORDED MEASUREMENT": "51 to 75%"}
{"COMPOUND": "COCC1CCN(c2nc(-c3nccn3C)nc3sc(-c4ccn(C(C)C)n4)c(C)c23)C1 (racemic)", "QUANTITY KIND": "inhibition at 20 µM", "RECORDED MEASUREMENT": "76 to 100%"}
{"COMPOUND": "CO[C@H]1C[C@H](Nc2nc(-c3nccn3C)nc3sc(-c4ccn(C(C)C)n4)c(C)c23)C[C@H]1OC", "QUANTITY KIND": "inhibition at 20 µM", "RECORDED MEASUREMENT": "76 to 100%"}
{"COMPOUND": "O=C(Nc1ccccc1)c1nc(O)c2scc(-c3ccccn3)c2n1", "QUANTITY KIND": "inhibition at 20 µM", "RECORDED MEASUREMENT": "1 to 25%"}
{"COMPOUND": "COCC1CCN(c2nc(-c3nccn3C)nc3sc(-c4ccn(C(C)C)n4)c(-c4ccccc4)c23)C1 (racemic)", "QUANTITY KIND": "inhibition at 20 µM", "RECORDED MEASUREMENT": "51 to 75%"}
{"COMPOUND": "COc1ccnc(Nc2nc(-c3nccn3C)nc3sc(-c4ccn(C(C)C)n4)c(C)c23)n1", "QUANTITY KIND": "inhibition at 20 µM", "RECORDED MEASUREMENT": "51 to 75%"}
{"COMPOUND": "CC(C)NC(=O)c1nc(O)c2scc(-c3ccccn3)c2n1", "QUANTITY KIND": "inhibition at 20 µM", "RECORDED MEASUREMENT": "26 to 50%"}
